Reported values of glycan array binding signal (z-score) for individual entries
experimental.target: Gal(b1-4)GlcNAc
measurement.description: glycan array binding signal (z-score within array); higher = stronger binding
run.parameters: glycan notation: IUPAC condensed, linker removed
The entries come from a sample that favours the strongest signals as a whole.
I only need the number, thanks.

Would you please look over these solved cases?
binder	glycan array binding signal (z-score)
Tap1 (Sordaria macrospora), Q50IV4 (protein) MSHHHHHHHHYTLHLRLINDTSDTLTLVEQTSWWGKNTIWSQVRSTGVHVLSMAASGSSGMLRFQTSKGDFFAVAVGVHNYKRWCDVLVDTADEAPLTKLHPKYYDDKDAKYQALWAQASEFEAKSKSGKTVRIKFYQADGNVLRATVEYL	-0.237
Gal-9-hFc (Mus musculus), O08573-2 (protein) MALFSAQSPYINPIIPFTGPIQGGLQEGLQVTLQGTTKSFAQRFVVNFQNSFNGNDIAFHFNPRFEEGGYVVCNTKQNGQWGPEERKMQMPFQKGMPFELCFLVQRSEFKVMVNKKFFVQYQHRVPYHLVDTIAVSGCLKLSFITFQTQNFRPAHQAPMAQTTIHMVHSTPGQMFSTPGIPPVVYPTPAYTIPFYTPIPNGLYPSKSIMISGNVLPDATRFHINLRCGGDIAFHLNPRFNENAVVRNTQINNSWGQEERSLLGRMPFSRGQSFSVWIICEGHCFKVAVNGQHMCEYYHRLKNLQDINTLEVAGDIQLTHVQT	-0.167

Entry under test: SSL (Salmo salar) (protein) TGAKGAEEGVVPAETRNQCPTGWFQFGSRCFMFVETARSWPLAERHCVSLGANLASVHSSADDQFLQAIAGCKTGAFSTTWIGGFDAVQDRLWFWSDGSEFDYQNWAKGEPNNSGGREPCIVINWGDEYRWNDIKCGNSFPSVCSKRICEIQKN . Its glycan array binding signal (z-score) was -0.154

These data points were gathered from the supplement of paper PMC8728848.
